Attribute: cytotoxicity at 70.5 h
assay: Human HepG2 cell viability assay in 384 well format; assay type: toxicity, cell-based; set-up: dose 125 nL, time 70.5 hour; concentration not given beside the values; conditions: HepG2 cells, read-out: Inhibition
Experimental readout: cytotoxicity at 70.5 h (%)

| Molecule | Experimental readout | Observed |
| --- | --- | --- |
| COCCNC(=O)c1ccc(NCc2c(C)noc2C)cc1Cl | cytotoxicity at 70.5 h | -6.64 |
| O=S(=O)(N1CCCCCC1)N1CCc2sccc2C1 | cytotoxicity at 70.5 h | -5.4 |
| Cc1ccc(CN2CCC3(CC2)CC(c2cccnc2)C(=O)N3C)o1 (configuration not stated) | cytotoxicity at 70.5 h | -2.25 |
| CN(C)CCN(Cc1ccc(F)cc1)C(=O)c1ccn(C)c(=O)c1 | cytotoxicity at 70.5 h | -5.2 |
| COc1ccc2c(ccn2CCCN)c1 | cytotoxicity at 70.5 h | -7.17 |
| Cc1ccc(N2CCN(C(=O)CCC(F)(F)F)C(C)C2)cc1 (configuration not stated) | cytotoxicity at 70.5 h | -18.6 |
| CN(Cc1cccc(Cl)c1)S(=O)(=O)N1CCOCC1 | cytotoxicity at 70.5 h | 1.29 |
| CCN(CC)CCN(CC(C)C)c1cc(C(F)(F)F)nc2ncnn12 | cytotoxicity at 70.5 h | 0.687 |
| CN(C)c1ncccc1C(=O)N1CCCN(c2cccnn2)CC1 | cytotoxicity at 70.5 h | -6.59 |
| CCn1cc(-c2cc(C(F)F)n3nc(CCC(=O)O)nc3n2)cn1 | cytotoxicity at 70.5 h | -2.48 |
| CCN(CCS(=O)(=O)CC)CC1CCCO1 (configuration not stated) | cytotoxicity at 70.5 h | -3.45 |
| Cc1nc[nH]c1CN1CCN(C(=O)CN2CCCC2)[C@H]2CS(=O)(=O)C[C@H]21 | cytotoxicity at 70.5 h | 3.25 |
